System: HS 578T breast
Assay: NCI tumour cell line growth inhibition, 48 h
measurement name: TGI

INSERT INTO results (molecule, assay_target, measured_result) VALUES
  ('Cc1[nH]n(-c2ncc(C#N)c(=O)[nH]2)c(=O)c1CCO', 'HS 578T breast', '> 100 µM'),
  ('CN(N=O)C(=O)NNC(=O)N(C)N=O', 'HS 578T breast', '> 100 µM'),
  ('c1ccc2[nH]c(C3CCCCO3)nc2c1 (stereo not given)', 'HS 578T breast', '> 100 µM'),
  ('CCCCCCCCCCCCCCCC(=O)Nc1ccn(C2OC(CO)C(O)C2O)c(=O)n1 (stereo not given)', 'HS 578T breast', '> 91.4 µM'),
  ('O=C(O)C1Cc2c([nH]c3ccccc23)C(CCCCO)N1 (stereo not given)', 'HS 578T breast', '> 100 µM'),
  ('O=c1cc(N2CCOCC2)[nH]c(=O)n1-c1cccc(Cl)c1', 'HS 578T breast', '> 100 µM'),
  ('COC(=O)CCC1(C)C2CCC1/C(=N/O)C2 (stereo not given)', 'HS 578T breast', '> 100 µM'),
  ('CCOC(=O)C(=CNC(=S)c1ccncc1)C(=O)OCC', 'HS 578T breast', '> 100 µM'),
  ('COc1cc(S(=O)(=O)Nc2ccc(-c3csc(N4C(=O)C(C)SC4c4cccc(Oc5ccccc5)c4)n3)cc2)ccc1Cl (stereo not given)', 'HS 578T breast', '> 100 µM'),
  ('CN1CCN(CCOc2ccc(-c3cnc4c(-c5cccc(F)c5F)cnn4c3)cc2)CC1', 'HS 578T breast', '4.74 µM'),
  ('Cc1cc2nc3[nH]c4c(Cl)cc(Cl)cc4c3nc2cc1C', 'HS 578T breast', '> 100 µM'),
  ('CCOC(=O)C(=Cc1ccc(-c2ccccc2)cc1)C(=O)OCC', 'HS 578T breast', '25.7 µM'),
  ('COc1cc(O)c2c3c(ccnc13)-c1ccccc1N2', 'HS 578T breast', '92.8 µM'),
  ('CCOc1cc2ncc(C#N)c(Nc3ccc(F)c(Cl)c3)c2cc1NC(=O)CC1CCSS1 (stereo not given)', 'HS 578T breast', '11.7 µM'),
  ('COc1ccc2c(c1)C(=Nc1ccc(F)c(F)c1F)c1c-2c(Nc2ccc(F)c(F)c2F)nc2ccccc12', 'HS 578T breast', '> 100 µM');

Where do the numbers come from? From PubChem BioAssay (NCI).
